system: IM-9 (Non-Cancerous); assay: Bliss excess, mean over the matrix (fraction); higher = more synergy;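 note: after 72 h of two-drug dosing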
ATTRIBUTE MEASURED: Bliss excess

N#Cc1cnc(Nc2cc(NC[C@H]3CNCCO3)c(C(F)(F)F)cn2)cn1 [SRA737] + Nc1ccn([C@@H]2O[C@H](CO)[C@@H](O)C2(F)F)c(=O)n1 [Gemcitabine] (first compound max 10 µM, 7x7, partner max 0.3 µM) ... 0.0254
COc1cccc(OCCCN)c1-c1cc(Nc2cnc(C#N)cn2)n[nH]1 [Prexasertib] + Cc1cc2ncnn2cc1Nc1ncc2c(n1)n(C1CCOCC1)c(=O)n2C [AZD7648] (first compound max 1 µM, 7x7, partner max 10 µM) ... -0.014
